assay: Biodistribution of 18F-labelled tracers in rats; assay type: in vivo; settings: SD rats; 30 min; decay correction not stated
VALUE KIND: Biodistribution: Adrenals (% ID/g)

{"columns": ["SMILES ENTRY", "VALUE KIND", "ASSAY RESULT"],
 "data": [
  ["CCN(CC)C(=O)Cc1c(-c2ccc(OCCCF)cc2)nc2ccc(Cl)cn12", "Biodistribution: Adrenals", 6.5],
  ["CCN(CC)C(=O)Cc1c(-c2ccc(C(C)(C)C)cc2)nc2ccc([18F])nn12", "Biodistribution: Adrenals", 13],
  ["CCN(CC)C(=O)Cc1c(-c2ccc(OCCF)cc2)nc2ccc(Cl)cn12", "Biodistribution: Adrenals", 9],
  ["CCN(CC)C(=O)Cc1c(-c2ccc(OCCCF)cc2)nn2c(C)cc(C)nc12", "Biodistribution: Adrenals", 7.9],
  ["CN(C(=O)Cc1c(-c2ccc(OCCCF)cc2)nc2c(Cl)cc(Cl)cn12)c1ccccc1", "Biodistribution: Adrenals", 9]
]}

====

molecular target: central benzodiazepine receptors; assay: In vitro binding, [3H]-Flumazenil, brain cortex membrane preparation; conditions: [3H]-Flumazenil (2 nM), 25° C., 45 min, read-out: CBR IC50
VALUE KIND: log10 IC50 (log10 of the value in nM)

{"columns": ["MOLECULE", "log10 IC50"],
 "data": [
  ["CNC(=O)Cc1c(-c2ccc(OCCF)cc2)nc2ccc(Cl)cn12", 2.74],
  ["CN(C(=O)Cc1c(-c2ccc(OCCF)cc2)nc2ccc(Cl)cn12)c1ccccc1", 2.55],
  ["CC(C)NC(=O)Cc1c(-c2ccc(OCCF)cc2)nc2ccc(Cl)cn12", 3.44],
  ["CCN(CC)C(=O)Cc1c(-c2ccc(C(C)(C)C)cc2)nc2ccc(F)nn12 [PBR 132]", 2.54],
  ["CCN(C)C(=O)Cc1c(-c2ccc(OCCF)cc2)nc2ccc(Cl)cn12", 3.14],
  ["CN(C)C(=O)Cc1c(-c2ccc(OCCF)cc2)nc2ccc(Cl)cn12", 3.25],
  ["CCN(CC)C(=O)Cc1c(-c2ccc(OCCF)cc2)nc2c(Cl)cc(Cl)cn12", 2.77],
  ["CC(C)(C)c1ccc(-c2nc3ccc(F)nn3c2CNC(=O)c2ccccc2)cc1", 3.42],
  ["CCN(CC)C(=O)Cc1c(-c2ccc(OCCF)cc2)nc2ccc(Cl)cn12", 3.19],
  ["CN(C(=O)Cc1c(-c2ccc(OCCCF)cc2)nc2c(Cl)cc(Cl)cn12)c1ccccc1", 3.61],
  ["CCN(CC)C(=O)Cc1c(-c2ccc(OCCCF)cc2)nc2ccc(Cl)cn12", 3.20],
  ["O=C(Cc1c(-c2ccc(OCCF)cc2)nc2ccc(Cl)cn12)N1CCCC1", 3.21],
  ["CCCN(CCC)C(=O)Cc1c(-c2ccc(OCCF)cc2)nc2ccc(Cl)cn12", 3.26],
  ["CCN(CC)C(=O)Cc1c(-c2ccc(OCCCCF)cc2)nc2ccc(Cl)cn12", 2.97],
  ["CCN(CC)C(=O)Cc1c(-c2ccc(C(C)(C)C)cc2)nc2ccc(F)nn12 [Compound 1, reference compound]", 2.53]
]}

====

assay: Biodistribution of 18F-labelled tracers in rats; assay type: in vivo; details: SD rats; 15 min; decay correction not stated
VALUE KIND: Biodistribution: Bone (% ID/g)

{"columns": ["COMPOUND", "RESULT UNIT", "ASSAY RESULT"],
 "data": [
  ["CCN(CC)C(=O)Cc1c(-c2ccc(OCCCF)cc2)nn2c(C)cc(C)nc12 [PBR146*]", "% ID/g", 1.0],
  ["CN(C(=O)Cc1c(-c2ccc(OCCCF)cc2)nc2c(Cl)cc(Cl)cn12)c1ccccc1 [PBR 147]", "% ID/g", 1],
  ["CCN(CC)C(=O)Cc1c(-c2ccc(OCCF)cc2)nn2c(C)cc(C)nc12 [PBR099]", "% ID/g", 0.64],
  ["CCN(CC)C(=O)Cc1c(-c2ccc(C(C)(C)C)cc2)nc2ccc([18F])nn12 [PBR132*]", "% ID/g", 1],
  ["CCN(CC)C(=O)Cc1c(-c2ccc(OCCF)cc2)nc2ccc(Cl)cn12 [PBR102]", "% ID/g", 0.4],
  ["CCN(CC)C(=O)Cc1c(-c2ccc(OCCCF)cc2)nc2ccc(Cl)cn12 [PBR111]", "% ID/g", 0.87]
]}

====

assay: Biodistribution of 18F-labelled tracers in rats; assay type: in vivo; conditions: rats; 60 min; corrected for decay of 18F
Reported Biodistribution: Lungs values are given for each entry in this list.
VALUE KIND: Biodistribution: Lungs (% ID/g)

{"columns": ["SMILES ENTRY", "ASSAY RESULT"],
 "data": [
  ["CCN(CC)C(=O)Cc1c(-c2ccc(OCCCF)cc2)nn2c(C)cc(C)nc12", 7.12],
  ["CCN(CC)C(=O)Cc1c(-c2ccc(OCCCF)cc2)nc2ccc(Cl)cn12", 5.68],
  ["CCN(CC)C(=O)Cc1c(-c2ccc(C(C)(C)C)cc2)nc2ccc([18F])nn12", 6.40],
  ["CCN(CC)C(=O)Cc1c(-c2ccc(OCCF)cc2)nc2ccc(Cl)cn12", 11.63]
]}

====

Reported Biodistribution: Olfactory bulbs values are given for each entry in this list.
Assay: Biodistribution of 18F-labelled tracers in rats
Type: in vivo
Details: SD rats; 15 min; decay correction not stated
Experimental: [^18F]Fluoride, in the form of H^18F, was produced by the ^18O(p,n)^18F nuclear reaction by bombardment of ^18O-enriched water target. […] The biodistribution of PBR132* was undertaken in SD rats and analysis up to 4 h p.i. in the brain and peripheral tissues was performed. The specificity and selectivity of the tracer were assessed by pre-treatment with PBR and Central benzodiazepine receptor (CBR) specific ligands (1 mg/kg) 5 min prior to injection of PBR132*. […]
VALUE KIND: Biodistribution: Olfactory bulbs (% ID/g)

{"columns": ["SMILES ENTRY", "RESULT UNIT", "ASSAY RESULT"],
 "data": [
  ["CN(C(=O)Cc1c(-c2ccc(OCCCF)cc2)nc2c(Cl)cc(Cl)cn12)c1ccccc1", "% ID/g", 0.66],
  ["CCN(CC)C(=O)Cc1c(-c2ccc(OCCF)cc2)nc2ccc(Cl)cn12", "% ID/g", 0.56],
  ["CCN(CC)C(=O)Cc1c(-c2ccc(C(C)(C)C)cc2)nc2ccc([18F])nn12", "% ID/g", 0.63],
  ["CCN(CC)C(=O)Cc1c(-c2ccc(OCCCF)cc2)nc2ccc(Cl)cn12", "% ID/g", 0.64],
  ["CCN(CC)C(=O)Cc1c(-c2ccc(OCCCF)cc2)nn2c(C)cc(C)nc12", "% ID/g", 0.41]
]}

====

test: Biodistribution of 18F-labelled tracers in rats; assay type: in vivo; conditions: rats; 15 min; corrected for decay of 18F
VALUE KIND: Biodistribution: Heart (% ID/g)

{"columns": ["SMILES ENTRY", "VALUE KIND", "ASSAY RESULT"],
 "data": [
  ["CCN(CC)C(=O)Cc1c(-c2ccc(OCCCF)cc2)nn2c(C)cc(C)nc12", "Biodistribution: Heart", 8.99],
  ["CCN(CC)C(=O)Cc1c(-c2ccc(OCCCF)cc2)nc2ccc(Cl)cn12", "Biodistribution: Heart", 6.76],
  ["CCN(CC)C(=O)Cc1c(-c2ccc(C(C)(C)C)cc2)nc2ccc([18F])nn12", "Biodistribution: Heart", 8.13],
  ["CCN(CC)C(=O)Cc1c(-c2ccc(OCCF)cc2)nc2ccc(Cl)cn12", "Biodistribution: Heart", 4.35]
]}

====

Reported Biodistribution: Skin values are given for each entry in this list.
Test: Biodistribution of 18F-labelled tracers in rats
Assay type: in vivo
Conditions: rats; 15 min; corrected for decay of 18F
Protocol: [^18F]Fluoride, in the form of H^18F, was produced by the ^18O(p,n)^18F nuclear reaction by bombardment of ^18O-enriched water target. […] The biodistribution of PBR132* was undertaken in SD rats and analysis up to 4 h p.i. in the brain and peripheral tissues was performed. The specificity and selectivity of the tracer were assessed by pre-treatment with PBR and Central benzodiazepine receptor (CBR) specific ligands (1 mg/kg) 5 min prior to injection of PBR132*. […]
VALUE KIND: Biodistribution: Skin (% ID/g)

{"columns": ["SMILES ENTRY", "VALUE KIND", "ASSAY RESULT"],
 "data": [
  ["CCN(CC)C(=O)Cc1c(-c2ccc(OCCCF)cc2)nn2c(C)cc(C)nc12", "Biodistribution: Skin", 0.53],
  ["CCN(CC)C(=O)Cc1c(-c2ccc(C(C)(C)C)cc2)nc2ccc([18F])nn12", "Biodistribution: Skin", 0.60],
  ["CCN(CC)C(=O)Cc1c(-c2ccc(OCCF)cc2)nc2ccc(Cl)cn12", "Biodistribution: Skin", 0.24],
  ["CCN(CC)C(=O)Cc1c(-c2ccc(OCCCF)cc2)nc2ccc(Cl)cn12", "Biodistribution: Skin", 0.34]
]}
